test system: NCI/ADR-RES; assay: NCI tumour cell line growth inhibition, 48 h
Active and inactive are the calls of the source. No stated cut-off is given here; in the data, active = GI50 up to about 1.1 µM and inactive = higher.
Possible outcomes: active, inactive

compound	classification
CC(=O)OC(C)(C)/C=C/C(=O)[C@](C)(O)[C@H]1[C@H](O)C[C@@]2(C)[C@@H]3CC=C4[C@@H](C=C(O)C(=O)C4(C)C)[C@]3(C)C(=O)C[C@]12C	active
O=c1[nH]c(=S)[nH]n1C(=S)n1[nH]c(=S)[nH]c1=O	inactive
CCCCC[C@H]1CCCCCCCCCC(=O)OC2C(O[C@@H]3OC(C)[C@H](OC(=O)[C@@H](C)CC)C(O[C@@H]4OC(C)[C@H](O)C(O)[C@@H]4O)[C@@H]3OC(=O)[C@H](C)CC)[C@H](OC3C(O)[C@@H](O)C(C)O[C@H]3O1)OC(CO)[C@H]2O (some centres not stated)	inactive
O=C1CCC(NC(=O)c2ccccc2)C(=O)N1 (configuration not stated)	inactive
CC(C)/C(Cl)=N\OC(=O)Nc1cccc(Cl)c1	inactive
CC(C)C1=CCC2C(=C1)CCC1C(C)(C(=O)O)CCCC21C (configuration not stated)	inactive
O=C(NN=C1CCN(Cc2ccccc2)CC1)C(O)(c1ccccc1)c1ccccc1	inactive

Every entry's value here was drawn from ChEMBL document CHEMBL1201862.
